Hi there, I'd appreciate the recorded melting point for every entry that follows.

Which melting point is reported for this compound? "CN(c1ncnc2[nH]cc(Cl)c12)C1CCCCCC1"
152 to 153 °C

Which melting point is reported for this compound? "Cc1cc2c(N(C)C3CCCCC3)ncnc2[nH]1"
221 °C (dec.)

Which melting point is reported for this compound? "CCN(Cc1ccccc1)c1ncnc2[nH]ccc12"
170 to 172 °C

---

Hi there, I'd appreciate the recorded melting point for every entry that follows.

Which melting point is reported for this molecule? "C#Cc1c[nH]c2ncnc(N3CCCCC3)c12"
179 to 181 °C

Which melting point is reported for this molecule? "CN(c1ncnc2[nH]cc(-c3ccc(F)cc3)c12)C1CCCCC1"
220 °C

Which melting point is reported for this molecule? "CCN(c1ncnc2[nH]ccc12)C1CCCCCCC1"
155 to 156 °C

Which melting point is reported for this molecule? "Clc1c[nH]c2ncnc(N3CCCCC3)c12"
170 to 172 °C

Which melting point is reported for this molecule? "c1nc(SC2CCCCC2)c2cc[nH]c2n1"
162 to 163 °C

Which melting point is reported for this molecule? "CN(c1ncnc2[nH]cc(-c3ccccc3)c12)C1CCCCC1"
200 °C

Which melting point is reported for this molecule? "CN(c1ncnc2[nH]cc(Cl)c12)C1CCCCCCC1"
151 to 153 °C

Which melting point is reported for this molecule? CCC(C)N(C)c1ncnc2[nH]ccc12 (centres unmarked)
146 to 148 °C

Which melting point is reported for this molecule? "CCN(c1ncnc2[nH]ccc12)C1CCCCCC1"
168 to 169 °C

Which melting point is reported for this molecule? "C=CCN(c1ncnc2[nH]ccc12)C1CCCC1"
173 to 175 °C

Which melting point is reported for this molecule? "N#Cc1c[nH]c2ncnc(N3CCCCC3)c12"
209 to 211 °C
